# PROCEDURE DETAILS: Aqueous solubility
# Type: physicochemical
# RECORDED CONDITIONS: aqueous buffer, pH 4.5 to 9.0
QUANTITY MEASURED: solubility

# compound CC(=O)N1CC[C@H]2CC[C@@H](C(=O)N[C@@H](CCC(N)=O)COc3cccc(CCCC(=O)N[C@H](C(=O)N4C[C@H](O)C[C@H]4C(=O)N[C@@H](C)c4ccc(-c5scnc5C)cc4)C(C)(C)C)c3Cl)N2C(=O)[C@@H](NC(=O)c2cc3cc(C(=O)P(=O)(O)O)ccc3[nH]2)C1 ; its solubility = > 10000 µg/mL
